B1: LINE1-full (parent)
chain: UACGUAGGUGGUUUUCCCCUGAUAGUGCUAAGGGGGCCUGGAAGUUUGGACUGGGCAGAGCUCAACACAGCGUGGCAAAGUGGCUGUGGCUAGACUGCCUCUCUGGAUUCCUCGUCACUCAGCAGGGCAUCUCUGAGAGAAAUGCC

Variants of: B1
Protocol text: self-cleavage, relative activity (ratio to wild type); higher = more cleavage; in vitro, sequencing; the parent is a self-cleaving ribozyme
Property: self-cleavage
Could you keep your reply to the number by itself?

• U20A U45C = 1.36
• U12C A24C = 1.61

Prompt: Item A129G A141C has what recorded self-cleavage?
Completion: 2.06

Prompt: Could you tell me which self-cleavage is on file for A57G A59G ?
Completion: 0.62

Prompt: Item U87C G88A has what recorded self-cleavage?
Completion: 0.09

Prompt: Look up self-cleavage for this variant: U96A C99U
Completion: 0.03

Prompt: Given the variant G35C A67G , what is its reported self-cleavage?
Completion: 0.22
